# tested_on: recombinant human PI3Kγ ((aa144-1102)-6His) (Homo sapiens (Human), UniProt P48736)
# Sequence (P48736 144-1102): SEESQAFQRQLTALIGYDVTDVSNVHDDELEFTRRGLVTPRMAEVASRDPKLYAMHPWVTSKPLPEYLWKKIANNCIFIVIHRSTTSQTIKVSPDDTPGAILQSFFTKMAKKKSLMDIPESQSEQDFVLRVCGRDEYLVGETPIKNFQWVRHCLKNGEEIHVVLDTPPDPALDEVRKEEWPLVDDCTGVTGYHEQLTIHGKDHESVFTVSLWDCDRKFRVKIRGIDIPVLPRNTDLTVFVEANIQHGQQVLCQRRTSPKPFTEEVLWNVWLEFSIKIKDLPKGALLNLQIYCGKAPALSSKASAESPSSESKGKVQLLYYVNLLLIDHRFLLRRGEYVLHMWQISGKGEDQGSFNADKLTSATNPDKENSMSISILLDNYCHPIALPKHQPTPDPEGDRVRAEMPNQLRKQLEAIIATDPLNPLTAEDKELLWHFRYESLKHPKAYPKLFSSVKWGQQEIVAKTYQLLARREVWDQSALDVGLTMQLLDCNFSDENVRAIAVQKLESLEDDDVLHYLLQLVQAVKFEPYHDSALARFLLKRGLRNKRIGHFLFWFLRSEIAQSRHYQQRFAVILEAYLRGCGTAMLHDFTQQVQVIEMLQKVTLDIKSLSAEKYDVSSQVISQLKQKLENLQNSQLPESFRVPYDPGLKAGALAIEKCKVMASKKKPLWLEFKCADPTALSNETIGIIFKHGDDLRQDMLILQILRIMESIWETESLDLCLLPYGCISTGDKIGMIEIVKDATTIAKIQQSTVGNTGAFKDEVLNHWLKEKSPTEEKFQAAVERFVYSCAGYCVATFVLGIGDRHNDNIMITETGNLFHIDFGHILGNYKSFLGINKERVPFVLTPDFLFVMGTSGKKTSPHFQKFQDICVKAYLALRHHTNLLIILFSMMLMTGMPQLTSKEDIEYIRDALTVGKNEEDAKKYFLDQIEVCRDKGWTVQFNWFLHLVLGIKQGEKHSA
# test_description: Enzymatic activity assay for recombinant human PI3Kγ (ADP-Glo)
# condition_info: 1.2 nM PI3Kγ, 20 μM ATP, 80 μM DiC8-PIP2, ADP-Glo
endpoint_label: IC50 (nM)

Illustrative cases are given below, each with its answer.
query_smiles: Cc1nc(Nc2cccc(N3Cc4ncccc4C3=O)n2)sc1-c1cc2c(c(S(C)(=O)=O)c1)C(=O)N([C@@H](C)C1CC1)C2
IC50, nM: 1
--
query_smiles: Cc1nc(Nc2cccc(N3CCNCC3=O)n2)sc1-c1cc2c(c(S(C)(=O)=O)c1)C(=O)N([C@@H](C)C1CC1)C2
IC50, nM: 1.6
--
query_smiles: CNS(=O)(=O)c1cc(-c2sc(Nc3cccc(N4C(=O)CNC[C@H]4C)n3)nc2C)cc2c1C(=O)N([C@@H](C)C1CC1)C2
IC50, nM: 1
--
query_smiles: Cc1nc(Nc2cccc(N3CCCC3=O)n2)sc1-c1cc2c(c(S(=O)(=O)NC3COC3)c1)C(=O)N([C@@H](C)C(F)(F)F)C2
IC50, nM: 1.1
--
query_smiles: CNS(=O)(=O)c1cc(-c2sc(Nc3cccc(N4CC(C)(C)NCC4=O)n3)nc2C)cc2c1C(=O)N([C@@H](C)C1CC1)C2
IC50, nM: 1.5

A. CNS(=O)(=O)c1cc(-c2sc(Nc3cccc(N4CCNCCC4=O)n3)nc2C)cc2c1C(=O)N([C@@H](C)C1CC1)C2
B. Cc1nc(Nc2cccc(N3CCCOC3=O)n2)sc1-c1cc2c(c(S(=O)(=O)NC(C)C)c1)C(=O)N([C@@H](C)C(F)(F)F)C2
C. Cc1nc(Nc2cccc(N3CCOCC3=O)n2)sc1-c1cc2c(c(S(C)(=O)=O)c1)C(=O)N([C@@H](C)C1CC1)C2
Put the entries in order of IC50, starting with the largest number. Kindly provide the labels arranged according to the requested ordering.
B, A, C

A. Cc1nc(Nc2cccc(N3CCOC3=O)n2)sc1-c1cc2c(c(S(=O)(=O)NC3COC3)c1)C(=O)N([C@@H](C)C1CC1)C2
B. CNS(=O)(=O)c1cc(-c2sc(Nc3cccc(N4C(=O)CNC[C@@H]4C)n3)nc2C)cc2c1C(=O)N([C@@H](C)C1CC1)C2
Which gives the smaller IC50 number: A or B ? API: response body contains the label of the selected item.
A
